system: IL-1β cytokine output from THP-1s; assay: THP-1 AlphaLISA IL-1β cytokine assay; assay type: cell-based, human; settings: Homo sapiens, THP-1, PMA-differentiated THP-1 cells, LPS 24 hr then Nigericin 1 hour; read-out: IL-1β (IC50)
Exercise: for every item that follows, state its recorded pIC50.
Answers are plain numbers, as −log10 of the molar value.

Molecule	Measurement name	Reported measurement
C=C(CC(=O)OCc1ccc(F)cc1)C(=O)OCC(=O)O	pIC50	4.13

Attention now turns to another entry.
Field request: pIC50 | item: C=C(CC(=O)OC1C2CCCC1CCC2)C(=O)OCC(=O)O (stereo not drawn)
4.48
